Molecular target: T1, cynomolgus monkey recombinant ADAMTS5 (cynomolgus monkey, UniProt Q9UNA0 262-622 (human entry), limits assumed)
T1 chain: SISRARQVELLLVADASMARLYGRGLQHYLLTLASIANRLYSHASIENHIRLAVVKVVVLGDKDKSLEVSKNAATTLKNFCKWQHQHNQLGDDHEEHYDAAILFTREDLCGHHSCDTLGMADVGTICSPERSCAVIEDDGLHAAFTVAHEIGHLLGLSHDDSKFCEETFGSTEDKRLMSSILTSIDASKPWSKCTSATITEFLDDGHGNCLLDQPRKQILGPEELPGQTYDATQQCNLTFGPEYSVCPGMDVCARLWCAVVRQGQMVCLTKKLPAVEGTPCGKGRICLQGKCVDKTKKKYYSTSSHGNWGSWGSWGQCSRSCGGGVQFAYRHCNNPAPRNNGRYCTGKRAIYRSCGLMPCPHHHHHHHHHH
Assay: cell-based or functional assay
Quantity: AlphaLISA potency IC50, Cyno (nM)
Record the value in nM, omitting the unit from your answer.

Some binders with known AlphaLISA potency IC50, Cyno results, for comparison:
>>> value_reported("Nanobody 2A12 (VHH, tagged as tested (anti-Flag detection, IMAC); also called 02A12) VHH: EVQLVESGGGLVQAGGSLRLSCAASGRTFSSYAMGWFRQAPGKERDFVAGISRSAGRTYYVDSVKGRFTISRDSAKNTVYLQMNRLKPEDTAVYYCAADLDPNRIFSRDEAAYWGQGTLVTVSS")
0.19
>>> value_reported("Nanobody 2D07 (VHH, tagged as tested (anti-Flag detection, IMAC); also called 02D07; 2D7) VHH: EVQLVESGGGLVQAGGSLRLSCSFSGPGRTFARYAMGWFRQAPGKNRDFITGISGSGDSTYYVYPMKDRFTISRDNAKNMVYLQMNALKPEDTAVYYCAADREINRIANDKELDFWGQGTLVTVSS")
0.15
>>> value_reported("Nanobody 2F03 (VHH, tagged as tested (anti-Flag detection, IMAC); also called 02F03; 2F3) VHH: EVQLVESGGGLVQAGGSLRLSCAASGRTVSSYAMGWFRLAPGKEREFVAGISRSAERTYYVDSLKGRFTISRDSAKNTVYLHMNRLKPEDTAVYYCAADLDPNRIFSREEYAYWGQGTLVTVSS")
0.081

Kindly consider the entry below.
Qu. May I ask what AlphaLISA potency IC50, Cyno has been recorded for Nanobody 9D03 (VHH, tagged as tested (anti-Flag detection, IMAC); also called 09D03; 9D3) VHH: EVQLVESGGGLVQSGGSLRLSCAASGSAVSVNAMAWYRQAPGKQRDFVAGISRSAGRTYYTDSVKDRFTIARDSAKNTVYLQMNRLKPEDTAVYYCAADLDPNRIFSRDEAAYWGQGTLVTVSS ?
Ans. 0.12
